System: P388 leukemia ip, CD2F1 mice, survival T/C
protocol: NCI In Vivo Anticancer Drug Screen. Data for tumor model P388 Leukemia (intraperitoneal) in CD2F1 (CDF1) mice
applied.conditions: endpoint: median survival time; dose: 50.0 mg/kg/injection; schedule: Q01DX009 (ip); vehicle: water; higher = longer survival
Inconclusive results and toxic doses are left out.
assay.endpoint: T/C

Study these solved cases before continuing.
- compound: "COc1cc2ccc(/C=N/NC(N)=S)cc2cc1OC"
  T/C: "96 % of control"
- compound: "O=C(O)c1ccccc1C(=O)O"
  T/C: "98 % of control"
- compound: "COc1ccc(CN2CCCNCC2)cc1"
  T/C: "102 % of control"
- compound: "CC1CC(C)(C)C2=NCCN21 (configuration not stated)"
  T/C: "107 % of control"
- compound: "COc1ccc2cc3ccncc3cc2c1OC"
  T/C: "99 % of control"
- compound: "OCC1OC(n2cc(I)c3c2ncn2nnnc32)C(O)C1O (configuration not stated)"
  T/C: "89 % of control"

Now let's try a different one.
Record `Cc1cc([N+](=O)[O-])c(S(N)(=O)=O)c([N+](=O)[O-])c1` / P388 leukemia ip, CD2F1 mice, survival T/C, T/C recorded as 98 % of control
